# System: PC-3 prostate
# assay_comment: NCI tumour cell line growth inhibition, 48 h; in the data active = GI50 below about 0.43 µM; inactive = the rest
Outcomes: active, inactive

mol_smiles | classification
O=C1/C(=C/c2ccccc2)CN(C(=O)C(Cl)Cl)C/C1=C\c1ccccc1 | active
COc1cc(OC)cc(-c2ccc(-c3ccc(C(=N)N)cn3)o2)c1 | inactive
O=C(Nc1ccc(Cc2ccccc2)cc1)Nc1nn(C(=O)Nc2ccc(Cc3ccccc3)cc2)c2ccccc12 | inactive
CC(=O)/C(=C/c1ccccc1)C(=O)CC(C)C | inactive
Cc1c(-c2ccc(C3CCCCC3)cc2)nc2ccc(F)cc2c1C(=O)O | active

----------
# Tested on: T-47D breast
# assay_comment: NCI tumour cell line growth inhibition, 48 h
quantity_name: TGI (µM)

compound | quantity_name | output_unit | bound_sign | readout_number
NC(N)=NS(=O)(=O)c1ccc(N/N=C2/CCOC2=O)cc1 | TGI | µM | > | 100
CCOC(=O)C(NC(=O)c1ccccc1)(Nc1ccc(S(=O)(=O)Nc2ncccn2)cc1)C(F)(F)F (stereo unspecified) | TGI | µM | > | 100
OCC1COc2cc(Cl)c(Cl)cc2O1 (stereo unspecified) | TGI | µM | > | 10
COC(=O)C1Cc2ccc(O)c(O)c2CN1 (stereo unspecified) | TGI | µM | > | 100
COC(=O)c1c(C(=O)OC)c2ccccn2c1-c1cc(OC)c(Br)c(=O)o1 | TGI | µM | > | 100
COc1nc2cccc(C(O)c3ccccc3)c2nc1-c1ccccc1 (stereo unspecified) | TGI | µM | = | 61.6
NC(=NCc1ccccc1)C(N=Nc1ccccc1)C(=O)NCc1ccccc1 (stereo unspecified) | TGI | µM | = | 35.4
CCOP(=O)(OCC)/C(C#N)=C/c1cccn1C(C)C | TGI | µM | > | 100
Cn1c(=O)c(Oc2ccc(F)cc2F)cc2cnc(NC(C)(C)CO)nc21 | TGI | µM | > | 25
O=C(Cc1ccccc1F)NC1=C(Cl)C(=O)c2ccccc2C1=O | TGI | µM | = | 5.8
Oc1ccc(Nc2ccc3ccccc3c2)cc1 | TGI | µM | = | 25.7
S=C(N/N=C(\c1ccccc1)c1ccccn1)NC1CCCCC1 | TGI | µM | > | 100
BrC(Br)=C1C(=C(Br)Br)C(Br)C1Br (stereo unspecified) | TGI | µM | > | 100
CC(=O)/C(=C/c1ccccc1)C(=O)CC(C)C | TGI | µM | = | 91.9
O=S(=O)(CCN1CCOCC1)Nc1cc(-c2ccc3ncnc(Nc4ccc(F)c(Cl)c4)c3c2)cnc1Cl | TGI | µM | = | 0.975
CCCCC(CCCCCC(CCCC)NCc1ccc2c(c1)OCO2)NCc1ccc2c(c1)OCO2 (stereo unspecified) | TGI | µM | = | 0.933
COC(=O)/C=C\C(C#N)(C#N)N=Cc1cccc(OC)c1 | TGI | µM | = | 18.9
COC(=O)c1ccc2c(c1)C(=O)c1c-2n(CCCCl)c(=O)c2cc([N+](=O)[O-])ccc12 | TGI | µM | > | 100
Cc1ccc(C(=O)Nc2ccc(CP(=O)(O)O)cc2)cc1NC(=O)c1cccc(N)c1 | TGI | µM | > | 100
COc1ccc(C=Nc2c(C(=O)Nc3cccc(Cl)c3C)sc3nc(C)c(C(=O)/C=C/c4ccc(OC)cc4)cc23)cc1 | TGI | µM | > | 50
O=C1CSC(c2c[nH]c3ccccc23)N1c1ccc(Cl)cc1 (stereo unspecified) | TGI | µM | > | 100
CCCCCCCCCCCC(=O)OC[C@H](C[As](=O)(O)O)OC(=O)CCCCCCCCCCC | TGI | µM | = | 47.2
COc1ccc(/C(C)=N/NC(=O)c2ccncc2)c(OC)c1 | TGI | µM | > | 10
O=C(CC1(O)C(=O)N(Cc2ccccc2)c2ccc(Cl)cc21)c1ccc(C(=O)NCC2CCC3(CC2)OOC2(CCCCC2)OO3)cc1 (stereo unspecified) | TGI | µM | = | 3.38
OC1c2ccccc2CCC1CN1CCN(CCOC(c2ccc(F)cc2)c2ccc(F)cc2)CC1 (stereo unspecified) | TGI | µM | = | 52.9
